The reader will find reported composite z-score values listed item by item below.
testedOn: Left-right determination factor 2 (Homo sapiens) (UniProt O00292)
Sequence (O00292 whole entry, looked up): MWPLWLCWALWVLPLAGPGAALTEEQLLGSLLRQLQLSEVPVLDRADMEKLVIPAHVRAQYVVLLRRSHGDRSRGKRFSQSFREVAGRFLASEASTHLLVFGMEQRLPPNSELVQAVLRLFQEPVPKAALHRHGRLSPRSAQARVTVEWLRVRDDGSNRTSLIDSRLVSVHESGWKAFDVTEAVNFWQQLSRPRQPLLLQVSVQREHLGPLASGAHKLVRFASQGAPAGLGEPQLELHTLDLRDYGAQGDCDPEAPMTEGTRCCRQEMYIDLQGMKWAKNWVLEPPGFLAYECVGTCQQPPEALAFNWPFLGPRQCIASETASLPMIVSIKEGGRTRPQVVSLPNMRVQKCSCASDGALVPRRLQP
measurementDescription: LEFTY2 binders on small-molecule microarrays, primary screen, biochemical, small-molecule microarray, 635 nm fluorescence scan (AID 1110)
measurementParameters: LEFTY2 binding, higher = more signal
Provide a numeric answer; units are not to be included.

Observe how each entry below is paired with its result.
{"compound": "CN(C)CCCNC(=O)[C@@]1(c2ccc([N+](=O)[O-])cc2)CC(=O)N(C2CCCCC2)[C@@H]1c1ccc(CO)cc1I", "testedOn": "Left-right determination factor 2 (Homo sapiens) (UniProt O00292)", "composite z-score": -0.104}
{"compound": "CC(CO)N1C(=O)[C@@H]2C3C(=O)OCCC/C=C\\[C@H]3OC23C=CCN(c2ccc4ccccc4c2)C(=O)[C@@H]13 (some centres undefined)", "testedOn": "Left-right determination factor 2 (Homo sapiens) (UniProt O00292)", "composite z-score": -1.22}
{"compound": "O=C1NC(=O)C2C1C=CC(C(O)C(c1ccccc1)c1ccccc1)N2Nc1ccc(Cl)cc1Cl (centres undefined)", "testedOn": "Left-right determination factor 2 (Homo sapiens) (UniProt O00292)", "composite z-score": -0.5}
{"compound": "C[C@@]1([C@@H](NC(=O)c2ccccc2)c2ccc(-c3ccccc3)cc2)C[C@H]1C1CCCCC1", "testedOn": "Left-right determination factor 2 (Homo sapiens) (UniProt O00292)", "composite z-score": -0.535}
{"compound": "OC([C@@H]1CC(c2ccccc2)=NO1)[C@H]1CC(c2ccccc2)=NO1 (some centres undefined)", "testedOn": "Left-right determination factor 2 (Homo sapiens) (UniProt O00292)", "composite z-score": 0.176}

Query string: Look up and state reported composite z-score for `CN1C(=O)[C@]2(Cc3ccccc3)N=C(c3ccc(OCCCO)cc3)O[C@@H]2c2ccccc21`
Result string: 0.235

Query string: Look up and state reported composite z-score for `COC(=O)C(CC#Cc1ccc2c(c1)[C@]1(C(=O)N2)[C@H](C(=O)O)[C@H]2C(=O)O[C@H](c3ccccc3)[C@H](c3ccccc3)N2[C@@H]1c1ccc(O)cc1)C(=O)OC`
Result string: -0.354

Query string: Look up and state reported composite z-score for `COCCOC(=O)N1C(=O)[C@@]2(c3cc(C#CC4=CCCCC4)ccc31)[C@H](c1ccc(O)cc1)N1[C@H](c3ccccc3)[C@H](c3ccccc3)OC(=O)[C@H]1[C@@H]2C(N)=O`
Result string: 0.63

Query string: Look up and state reported composite z-score for CN1C(=O)C2C=CC(C(O)c3ccc(I)cc3)N(N3CCCCC3)C2C1=O (centres undefined)
Result string: 0.0759

Query string: Look up and state reported composite z-score for `O=C1O[C@H](c2ccccc2)[C@H](c2ccccc2)N2[C@H]1[C@@H](C(=O)O)[C@]1(C(=O)Nc3ccc(C#CC4=CCCCC4)cc31)[C@H]2c1ccccc1OCCO`
Result string: 0.663

Query string: Look up and state reported composite z-score for `[N-]=[N+]=NCc1ccccc1C[C@]1(C(=O)O)N=C(c2ccc(OCCCO)cc2)O[C@H]1c1ccccc1N=[N+]=[N-]`
Result string: 0.11

Query string: Look up and state reported composite z-score for `COCCn1c(C(=O)N2CCCC2)cc2c1C[C@H]1CN(C(=O)c3ccccc3)[C@@](Cc3ccc(F)cc3)(C(=O)OC)[C@@H]21`
Result string: -0.0638

Query string: Look up and state reported composite z-score for `O=C1O[C@@H](c2ccccc2)[C@@H](c2ccccc2)N2[C@@H](c3ccccc3OCCO)[C@]3(C(=O)Nc4ccc(C#CC5=CCCCC5)cc43)[C@@H](C(=O)Nc3nc4ccccc4s3)[C@H]12`
Result string: 0.501

Query string: Look up and state reported composite z-score for `Cc1ccc(S[C@]2(C(=O)NC3CC3)CC(=O)N(C3Cc4ccccc4C3)[C@@H]2c2ccc(CO)cc2)cc1`
Result string: -1.7

====

The reader will find reported composite z-score values listed item by item below.
testedOn: Dickkopf-related protein 1 (Homo sapiens) (UniProt O94907)
Sequence (O94907 whole entry, looked up): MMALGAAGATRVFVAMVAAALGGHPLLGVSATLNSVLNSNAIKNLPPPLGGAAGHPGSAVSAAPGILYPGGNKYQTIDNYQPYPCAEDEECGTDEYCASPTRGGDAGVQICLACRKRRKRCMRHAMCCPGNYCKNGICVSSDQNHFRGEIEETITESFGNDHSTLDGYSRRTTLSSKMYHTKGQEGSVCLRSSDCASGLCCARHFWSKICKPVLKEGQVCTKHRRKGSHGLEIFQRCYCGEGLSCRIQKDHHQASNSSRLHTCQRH
measurementDescription: DKK1 binders on small-molecule microarrays, primary screen, biochemical, small-molecule microarray, 635 nm fluorescence scan (AID 1106);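 also: score merges emission near 667 nm with signal to noise over three replicate slides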
measurementParameters: DKK1 binding, higher = more signal
Provide a numeric answer; units are not to be included.

Observe how each entry below is paired with its result.
{"compound": "NC(=O)[C@@H]1[C@H]2C(=O)O[C@H](c3ccccc3)[C@H](c3ccccc3)N2[C@H](c2ccc(O)cc2)[C@@]12C(=O)Nc1ccc(C#CC3(O)CCCCCC3)cc12", "observedMeasurement": -0.193}
{"compound": "COC(=O)[C@@]1(Cc2ccc(F)cc2)[C@H]2c3cc(C(=O)N4CCCC4)n(Cc4ccc(C)o4)c3C[C@H]2CN1C(=O)c1ccccc1", "observedMeasurement": -0.177}
{"compound": "COC(=O)[C@@]1(Cc2ccc(OC)cc2)[C@H]2c3cc(C(=O)N(C)C)n(Cc4cccc5ccccc45)c3C[C@H]2CN1C(=O)c1ccccc1", "observedMeasurement": 0.208}
{"compound": "CC1CC/C=C\\[C@H]2OC34C=CCN(c5ccc(Cl)cc5)C(=O)[C@H]3N(CCO)C(=O)[C@]4(C)C2C(=O)O1 (some centres undefined)", "observedMeasurement": -1.46}
{"compound": "CC(=O)N1Cc2ccccc2C[C@@]2(COC(c3ccc(OCCCO)cc3)=N2)C1=O", "observedMeasurement": 0.438}

Query string: State the measured composite z-score (Dickkopf-related protein 1 (Homo sapiens) (UniProt O94907)) of CCCCN1CC=CC23O[C@@H]4C=CCOC(=O)[C@@H]4[C@H]2C(=O)N(CCCCCO)[C@@H]3C1=O (some centres undefined)
Result string: -1.03

Query string: State the measured composite z-score (Dickkopf-related protein 1 (Homo sapiens) (UniProt O94907)) of `CCOC(=O)C=Cc1cc([N+](=O)[O-])ccc1O`
Result string: -0.693

Query string: State the measured composite z-score (Dickkopf-related protein 1 (Homo sapiens) (UniProt O94907)) of `O=C(NCc1ccccc1)[C@@]1(Cc2ccccc2)N=C(c2ccc(OCCCO)cc2)O[C@H]1c1ccccc1`
Result string: -0.996

Query string: State the measured composite z-score (Dickkopf-related protein 1 (Homo sapiens) (UniProt O94907)) of O=C1OCCC/C=C\[C@H]2OC34C=CCN(Cn5nnc6ccccc65)C(=O)[C@H]3N(CCCCCCO)C(=O)[C@@H]4C12 (some centres undefined)
Result string: -0.774

Query string: State the measured composite z-score (Dickkopf-related protein 1 (Homo sapiens) (UniProt O94907)) of `COc1ccc([C@H]2C[C@H]3C(Br)=C[C@@H]2C(=O)[C@]32CO2)cc1`
Result string: 1.03

====

measurementDescription: basal MM1S mitochondrial membrane potential changes, profiling panel, cell-based, JC-1 fluorescence, 24 h, 100 nL compound (AID 1170); also: test concentration not given here
measurementParameters: higher = more signal
The threshold is inclusive: z-score of exactly -0.9 counts as Criterion met; values below receive Criterion not met.

{"molecule": "COC(=O)c1c(CC[C@@H](CO)NC(=O)N[C@H](Cn2cc(Cc3ccccc3)nn2)C(C)C)oc(C(C)=O)c1C(=O)OC", "discreteLabel": "Criterion met"}
{"molecule": "Cc1ccc(S[C@]2(C(=O)NC3CC3)CC(=O)N(C3Cc4ccccc4C3)[C@@H]2c2ccc(CO)cc2)cc1", "discreteLabel": "Criterion met"}
{"molecule": "O=C1c2ccccc2[C@](Cc2ccccc2I)(C(=O)NC2CC2)[C@H](c2ccc(CO)cc2)N1C1CCCCC1", "discreteLabel": "Criterion met"}
{"molecule": "O=C(NCc1ccccc1)[C@@]1(CCS(=O)(=O)c2ccccc2)N=C(c2ccc(OCCCO)cc2)O[C@H]1c1ccccc1", "discreteLabel": "Criterion not met"}
{"molecule": "COC(=O)[C@@]1(Cc2ccc(OC)cc2)[C@H]2c3cc(C(=O)N4CCCC4)n(Cc4ccccc4)c3C[C@H]2CN1C(=O)c1ccccc1", "discreteLabel": "Criterion not met"}
{"molecule": "O=C1C2C=CC(C(O)C(c3ccccc3)c3ccccc3)N(n3cnnc3)C2C(=O)N1Cc1ccccc1 (stereo not drawn)", "discreteLabel": "Criterion met"}

Query string: Can `COc1ccc([Si](C)(C)[C@H]2[C@H](CC(=O)N3Cc4ccccc4C[C@H]3CO)O[C@@]3(C(=O)N(Cc4ccc(N5CCC5=O)cc4)c4ccccc43)[C@@H]2C)cc1` be said to have z-score at or above -0.9?
Result string: Criterion not met

Query string: Can `COCCOC(=O)N1C(=O)[C@@]2(c3cc(C#CCCO)ccc31)[C@H](C(=O)Nc1nc3ccccc3s1)[C@H]1C(=O)O[C@H](c3ccccc3)[C@H](c3ccccc3)N1[C@@H]2c1ccc(OCCO)cc1` be said to have z-score at or above -0.9?
Result string: Criterion not met

Query string: Can `CN(C)C(=O)[C@@]1(Cc2ccccc2CN=[N+]=[N-])N=C(c2ccc(OCCCO)cc2)O[C@H]1c1ccccc1` be said to have z-score at or above -0.9?
Result string: Criterion not met

Query string: Can `COC(=O)[C@@]1(Cc2ccccc2)[C@H]2c3cc(C(=O)N4CCCC4)n(CC4CC4)c3C[C@H]2CN1C(=O)c1ccccc1` be said to have z-score at or above -0.9?
Result string: Criterion met

Query string: Can `COCC(=C=CC[C@@H](O)c1ccccc1OCCO)C[C@@H](O)c1cc(Cl)cc(Cl)c1O` be said to have z-score at or above -0.9?
Result string: Criterion not met

Query string: Can `COC(=O)[C@@]1(Cc2ccccc2)[C@H]2c3cc(C(=O)N4CCCC4)n(Cc4cccc5ccccc45)c3C[C@H]2CN1C(=O)c1ccccc1` be said to have z-score at or above -0.9?
Result string: Criterion not met

Query string: Can `CC(C)(C)OC(=O)CC[C@]12N=C(c3ccc(OCCCO)cc3)O[C@H]1c1ccccc1N(CCS(=O)(=O)c1ccccc1)C2=O` be said to have z-score at or above -0.9?
Result string: Criterion met

Query string: Can O=C1OCC=C[C@H]2OC34C=CCN(CCN5CCOCC5)C(=O)[C@H]3N(CCCO)C(=O)[C@@H]4[C@@H]12 (stereo partly drawn) be said to have z-score at or above -0.9?
Result string: Criterion met

Query string: Can `C=CCN1C(=O)[C@]2(O[C@H](CCO)[C@@H]([Si](C)(C)c3ccc(OC)cc3)[C@@H]2C)c2cc(N3C(=O)c4cccc5cccc3c45)ccc21` be said to have z-score at or above -0.9?
Result string: Criterion not met

Query string: Can `CCCCC=C[C@@H](NC(=O)Oc1cccc(C(F)(F)F)c1)c1ccccc1` be said to have z-score at or above -0.9?
Result string: Criterion not met

Hey, just so you know, these numbers are from PubChem BioAssay.
